System: UO-31 renal
EXPERIMENT NOTES: NCI tumour cell line growth inhibition, 48 h
PROPERTY MEASURED: TGI (µM)
Report only the number, with the unit µM understood.

QUERY: Which TGI is listed for O=C1c2ccccc2C(=O)c2c1c1cc(O)ccc1n2Cc1ccc(Cl)cc1Cl ?
RESULT: 37.9

QUERY: How about CN(C)CCCN1c2ccc3ccccc3c2Sc2cccc(Cl)c21 ?
RESULT: 12

QUERY: How about Oc1c(Br)cc(Br)c2cccnc12 ?
RESULT: 16.5

QUERY: How about COc1ccc(N=Nc2ccc3oc(=O)c(C(=O)Nc4ccc(OC)cc4)cc3c2)cc1 ?
RESULT: 62.4

Data credit: PubChem BioAssay (NCI)
